Assign IC50 to each entry below.
Biological target: Angiotensin-converting enzyme (Oryctolagus cuniculus)
Sequence (P12822 whole entry): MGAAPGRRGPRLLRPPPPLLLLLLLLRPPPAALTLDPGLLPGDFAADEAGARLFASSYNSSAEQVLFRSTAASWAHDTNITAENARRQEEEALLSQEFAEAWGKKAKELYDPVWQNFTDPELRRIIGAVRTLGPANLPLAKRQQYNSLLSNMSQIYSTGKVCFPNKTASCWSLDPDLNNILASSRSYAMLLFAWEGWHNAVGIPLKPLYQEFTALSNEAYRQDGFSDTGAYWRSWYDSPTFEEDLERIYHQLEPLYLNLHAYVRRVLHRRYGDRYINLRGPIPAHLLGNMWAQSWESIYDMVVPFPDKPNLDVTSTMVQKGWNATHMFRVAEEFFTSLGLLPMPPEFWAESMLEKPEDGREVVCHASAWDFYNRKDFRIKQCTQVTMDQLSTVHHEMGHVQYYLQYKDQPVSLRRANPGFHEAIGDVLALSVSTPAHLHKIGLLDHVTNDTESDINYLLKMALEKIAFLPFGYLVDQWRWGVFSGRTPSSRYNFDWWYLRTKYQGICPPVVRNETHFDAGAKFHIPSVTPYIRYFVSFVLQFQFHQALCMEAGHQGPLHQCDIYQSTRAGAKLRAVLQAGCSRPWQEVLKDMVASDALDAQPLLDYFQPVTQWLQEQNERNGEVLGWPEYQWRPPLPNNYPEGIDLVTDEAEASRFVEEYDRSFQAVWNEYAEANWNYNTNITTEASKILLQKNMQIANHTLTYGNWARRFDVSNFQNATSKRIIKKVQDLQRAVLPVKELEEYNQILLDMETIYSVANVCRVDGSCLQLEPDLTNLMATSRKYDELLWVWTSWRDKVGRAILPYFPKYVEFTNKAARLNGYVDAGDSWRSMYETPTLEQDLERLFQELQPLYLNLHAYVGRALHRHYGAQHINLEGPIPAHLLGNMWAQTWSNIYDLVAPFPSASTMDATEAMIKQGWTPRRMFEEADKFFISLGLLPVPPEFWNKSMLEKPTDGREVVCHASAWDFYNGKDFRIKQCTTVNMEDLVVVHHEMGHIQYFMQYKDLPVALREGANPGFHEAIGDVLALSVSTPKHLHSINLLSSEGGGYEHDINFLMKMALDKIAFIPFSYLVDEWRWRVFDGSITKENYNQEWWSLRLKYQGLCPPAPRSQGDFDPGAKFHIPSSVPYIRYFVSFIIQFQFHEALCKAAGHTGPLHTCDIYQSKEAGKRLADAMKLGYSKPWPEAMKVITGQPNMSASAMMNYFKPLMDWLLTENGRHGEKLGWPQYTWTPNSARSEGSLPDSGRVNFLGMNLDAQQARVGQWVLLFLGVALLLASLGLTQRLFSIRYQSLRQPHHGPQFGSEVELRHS
Assay: In vitro inhibition of angiotensin I converting enzyme (ACE)
Answers are plain numbers, in nM.

Below are worked cases with known answers.
> print(dat)
                                   molecule  observed.property  readout.value
1  CCOC(=O)[C@H](CCc1ccccc1)C[C@@H](C)C(=O)N1c2ccccc2CC1C(=O)O (stereo partly specified)               IC50          11000
2  CC(CC(C)C(=O)N1c2ccccc2CC1C(=O)O)C(=O)O (stereo in doubt; 6n)               IC50             54
3  C[C@H](C[C@@H](C)C(=O)N1c2ccccc2CC1C(=O)O)C(=O)O (stereo partly specified)               IC50             28
4  CCOC(=O)C1Cc2ccccc2N1C(=O)[C@H](C)C[C@@H](C)C(=O)O (stereo partly specified)               IC50          28000

List IC50 for every entry below, keeping the order given.
1. CCOC(=O)[C@@H](CCC(=O)N1c2ccccc2CC1C(=O)O)CCc1ccccc1 (stereo partly specified)
2. O=C(O)CCCC(=O)N1CCC[C@H]1C(=O)O

Reply |
[4300, 70000]

---

Biological target: Angiotensin-converting enzyme (Oryctolagus cuniculus)
Assay: In vitro inhibition of angiotensin I converting enzyme (ACE)
Assign pIC50 to each entry below.
Give bare numbers, as −log10 of the molar value.

Below are worked cases with known answers.
> print(dat)
                                   compound  readout.value
1  CC(CCC(=O)O)C(=O)N1c2ccccc2CC1C(=O)O (stereo not given)           7.19
2  O=C(O)CCCC(=O)N1c2ccccc2CC1C(=O)O (stereo not given)           6.59
3  C[C@H](CCC(=O)O)C(=O)N1c2ccccc2CC1C(=O)O (stereo not given in full)           7.36
4  O=C(O)C1Cc2ccccc2N1C(=O)CC[C@@H](CCc1ccccc1)C(=O)O (stereo not given in full)           7.48

Ask | Name the recorded pIC50 for COC(=O)CCC(C)C(=O)N1c2ccccc2CC1C(=O)O (stereo not given) .
Reply | 5.16
